Listed here are compounds together with their documented pIC50.
# targetOfAssay: Bovine lysyl oxidase (LOX) (Bos taurus)
# Sequence (P33072 170-418): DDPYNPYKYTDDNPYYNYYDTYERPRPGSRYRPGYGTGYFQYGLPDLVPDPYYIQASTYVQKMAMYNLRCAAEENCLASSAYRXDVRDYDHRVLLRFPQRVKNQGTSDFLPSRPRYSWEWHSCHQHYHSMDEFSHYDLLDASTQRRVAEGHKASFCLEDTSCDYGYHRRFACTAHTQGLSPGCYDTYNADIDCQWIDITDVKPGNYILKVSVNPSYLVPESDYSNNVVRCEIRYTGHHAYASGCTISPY
pIC50: −log10 of the molar value.

Past entries and their recorded results:
compound	pIC50
NCc1ccnc(S(=O)(=O)C[C@@H]2C[C@H](c3ccccc3F)CN2S(=O)(=O)N2CCOCC2)c1 (racemic) [Example 203, 2,2,2-trifluoroacetate]	4.52 to 6.00
NCc1ccc(S(=O)(=O)C[C@@H]2C[C@H](c3ccc(F)cc3)CN2S(=O)(=O)N2CCS(=O)(=O)CC2)s1 (racemic) [Example 210, 2,2,2-trifluoroacetate]	4.52 to 6.00
NCc1ccnc(S(=O)(=O)C[C@H]2C[C@@H](c3ccccc3)CN2S(=O)(=O)N2CCS(=O)(=O)CC2)c1 [Example 196B, 2,2,2-trifluoroacetate]	6.00 to 6.30
NCc1ccnc(S(=O)(=O)C[C@@H]2C[C@H](c3ccccc3)CN2S(=O)(=O)N2CCS(=O)(=O)CC2)c1 [Example 196A, 2,2,2-trifluoroacetate]	6.00 to 6.30
NCc1ccc(S(=O)(=O)C[C@@H]2C[C@H](c3ccccc3F)CN2S(=O)(=O)N2CCOCC2)s1 (racemic) [Example 207, 2,2,2-trifluoroacetate]	≥ 6.30

# lookup: pIC50 of NCc1ccnc(S(=O)(=O)C[C@@H]2C[C@H](c3ccccc3)CN2S(=O)(=O)N2CCOCC2)c1 (single isomer, unassigned) [Example 195B]
4.52 to 6.00

###

# targetOfAssay: Recombinant human LOXL2 (lysyl oxidase like 2) (Homo sapiens, UniProt Q9Y4K0)
# Sequence (Q9Y4K0 26-774): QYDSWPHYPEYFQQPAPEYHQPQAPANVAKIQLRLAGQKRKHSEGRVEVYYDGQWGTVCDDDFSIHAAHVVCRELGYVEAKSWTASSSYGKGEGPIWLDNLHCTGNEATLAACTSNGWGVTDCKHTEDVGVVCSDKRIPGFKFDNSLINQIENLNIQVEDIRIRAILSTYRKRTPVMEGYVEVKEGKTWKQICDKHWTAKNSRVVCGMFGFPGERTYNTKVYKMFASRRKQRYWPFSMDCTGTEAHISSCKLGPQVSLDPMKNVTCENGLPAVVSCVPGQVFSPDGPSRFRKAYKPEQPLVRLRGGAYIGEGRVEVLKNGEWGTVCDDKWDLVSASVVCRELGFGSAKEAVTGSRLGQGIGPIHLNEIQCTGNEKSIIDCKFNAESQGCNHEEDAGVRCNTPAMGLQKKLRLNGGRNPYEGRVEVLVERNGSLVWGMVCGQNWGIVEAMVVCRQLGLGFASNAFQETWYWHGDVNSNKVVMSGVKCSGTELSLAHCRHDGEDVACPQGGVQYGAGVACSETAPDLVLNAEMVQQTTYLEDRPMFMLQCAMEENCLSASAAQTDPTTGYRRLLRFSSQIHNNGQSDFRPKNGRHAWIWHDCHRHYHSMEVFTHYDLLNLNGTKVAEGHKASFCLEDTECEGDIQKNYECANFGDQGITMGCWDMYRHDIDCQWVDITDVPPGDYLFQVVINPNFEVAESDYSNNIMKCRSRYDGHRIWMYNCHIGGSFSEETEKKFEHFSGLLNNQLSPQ
# protocolNotes: LOXL2 inhibition assay, fluorometric (cadaverine / HRP / Amplex Red)
# conditionDescription: recombinant human LOXL2 130 nM; 30 min preincubation at 37° C.; 2.5 mM cadaverine; read-out: Activity Range LOXL2
Listed here are molecules together with their documented IC50.

Past entries and their recorded results:
molecule	IC50
NCc1ccnc(OC[C@@H]2C[C@H](c3ccccc3)CN(S(=O)(=O)N3CCOCC3)C2)c1 (racemic) [Example 220, 2,2,2-trifluoroacetate]	≤ 500 nM
NCc1ccnc(S(=O)(=O)C[C@@H]2C[C@H](c3ccccc3)CN(S(=O)(=O)N3CCOCC3)C2)c1 (racemic) [Example 219, 2,2,2-trifluoroacetate]	≤ 500 nM
CS(=O)(=O)N1C[C@@H](c2ccccc2)C[C@H]1CS(=O)(=O)c1cccc(CN)c1 (racemic) [Example 27, 2,2,2-trifluoroacetate]	≤ 500 nM
NCc1cccc(OC[C@@H]2C[C@H](c3ccccc3F)CN2S(=O)(=O)N2CCOCC2)c1 (racemic)	500 to 1000 nM
NCc1ccnc(OC[C@@H]2C[C@H](C3CCCCC3)CN(S(=O)(=O)N3CCOCC3)C2)c1 (relative stereo) [Example 231, 2,2,2-trifluoroacetate]	≤ 500 nM

# lookup: IC50 of NCc1ccnc(OC[C@H]2C[C@H](c3ccccc3)CN(S(=O)(=O)N3CCOCC3)C2)c1 (relative stereo) [Example 220T, 2,2,2-trifluoroacetate]
500 to 1000 nM

Then this molecule: NCc1cccc(OC[C@@H]2C[C@H](c3ccccc3F)CN2S(=O)(=O)N2CCS(=O)(=O)CC2)c1 (racemic) [Example 217, 2,2,2-trifluoroacetate]
500 to 1000 nM

Then this molecule: NCc1ccnc(S(=O)(=O)C[C@@H]2C[C@H](C3CCCCC3)CN(S(=O)(=O)N3CCS(=O)(=O)CC3)C2)c1 (relative stereo) [Example 234, 2,2,2-trifluoroacetate]
≤ 500 nM

Then this molecule: NCc1ccc(S(=O)(=O)C[C@@H]2C[C@H](c3ccc(F)cc3)CN2S(=O)(=O)N2CCS(=O)(=O)CC2)s1 (racemic) [Example 210, 2,2,2-trifluoroacetate]
≤ 500 nM

Then this molecule: NCc1ccnc(S(=O)(=O)C[C@@H]2C[C@H](c3ccccc3)CN2S(=O)(=O)N2CCOCC2)c1 (single isomer, unassigned) [Example 195B]
≤ 500 nM

Then this molecule: CS(=O)(=O)N1C[C@@H](c2ccccc2)C[C@@H]1CS(=O)(=O)c1ccc(CN)s1 (racemic) [Example 223T, 2,2,2-trifluoroacetate]
≤ 500 nM

Then this molecule: NCc1ccnc(OC[C@@H]2C[C@H](c3ccc(F)cc3)CN2S(=O)(=O)N2CCS(=O)(=O)CC2)c1.O=C(O)C(F)(F)F (racemic) [Example 214, 2,2,2-trifluoroacetate]
≤ 500 nM

Then this molecule: NCc1ccc(S(=O)(=O)C[C@@H]2C[C@H](c3ccc(F)cc3)CN2S(=O)(=O)N2CCOCC2)s1 (racemic) [Example 208, 2,2,2-trifluoroacetate]
≤ 500 nM

Then this molecule: NCc1ccnc(S(=O)(=O)C[C@H]2C[C@@H](c3ccccc3)CN2S(=O)(=O)N2CCOCC2)c1 (single isomer, unassigned) [Example 195A]
≤ 500 nM
